B1: tRNA (parent)
chain: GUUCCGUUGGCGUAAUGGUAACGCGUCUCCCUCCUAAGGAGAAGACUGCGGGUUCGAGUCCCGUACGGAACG

Variants of: B1
experimentNotes: yeast fitness relative to wild type (ratio to wild type); higher = fitter; tRNA-Arg(CCU), competitive growth, 37 C, YPD
Fewer inactive variants are shown than the library holds.
# yeast fitness per entry
endpoint: yeast fitness

{"columns": ["variantIdentifier", "reportedValue"],
 "data": [
  ["C29A C31U C34A A36G G56C", "≤ 0.5"],
  ["C31U C60A G67A", "≤ 0.5"],
  ["C29G U53C U54G", 0.509],
  ["U35A A36U C61U", "≤ 0.5"],
  ["C29U A70C", 0.867],
  ["A15C G39A A57G C66U", "≤ 0.5"],
  ["G18C C29U C30U A37G C49U G67A", "≤ 0.5"],
  ["C22G C27G U59C C62U G68U", 0.529],
  ["U3A A65C", 0.879],
  ["G25C A40C C62A", 0.675],
  ["C5U U28G C61G", 0.58],
  ["G17C", 0.7],
  ["A14G C29U G52C", "≤ 0.5"],
  ["G10C C30U G38A", 0.531],
  ["A20U A37G", 0.892],
  ["U2A A14C A37C", "≤ 0.5"],
  ["U7A C34A G44A C46U A70C", "≤ 0.5"],
  ["U3A G23A A70G", 0.561],
  ["U3A C4U C11A G44A", "≤ 0.5"],
  ["C55A U64C", 0.623],
  ["A15U C62U", 0.787],
  ["G6C C11A A43U G48C", "≤ 0.5"],
  ["U7A G23A A42G C62U", "≤ 0.5"],
  ["C24G C49G G67A A69C", 0.521],
  ["G12C C31A A40C C62U", "≤ 0.5"],
  ["G39A A45C A69C", 0.804],
  ["C11A A21G C33G A36U G44A U59C", "≤ 0.5"],
  ["C5U C24A U26C A40G G56A", "≤ 0.5"],
  ["U7A U32A", 0.588],
  ["A37C U47A", 0.674],
  ["G23A C33G U47A G68A", 0.539],
  ["U13A A40U A43C", 0.693],
  ["U3A C24U C31G A37G", "≤ 0.5"],
  ["A15C G48A U64G", 0.593],
  ["C30U C46G C49U", 0.641],
  ["C5A G52A G56A G58C", "≤ 0.5"],
  ["G17A G25C A40U", 0.574],
  ["G6C A42C C49U C66A", "≤ 0.5"],
  ["U32C G38C A69U", 0.531],
  ["C4U C5U C31G A45G", "≤ 0.5"],
  ["A20U C24U", 0.841],
  ["U3A U19A C24U", 0.74],
  ["C27G C49A A70U", "≤ 0.5"],
  ["U32C G38A", 0.962],
  ["C27G C33U", 0.592],
  ["C33A A65G A69C", "≤ 0.5"]
]}
